- Tested on: breast cancer (MCF-7)
- measurementProtocol: Antiproliferative assay, MCF-7
- Format: cell-based, human
- conditionLabel: Homo sapiens, MCF7; MCF-7 breast cancer cell line; read-out: Antiproliferative activity IC50 ± SEM (nM) MCF-7
readoutLabel: IC50 (nM)
Reply numerically in nM, unit not repeated.

The molecule listed as Cn1c(=O)c2c(c3ccccc31)OC(N)=C(C#N)C2c1ccccc1 (centres unmarked) [Compound 5e] has a reported IC50 of 24

The molecule listed as N#CC1=C(N)Oc2c(c(=O)[nH]c3ccccc23)C1c1ccccc1 (centres unmarked) [Compound 5a] has a reported IC50 of 27

The molecule listed as COc1ccc(C2C(C#N)=C(N)Oc3c2c(=O)n(C)c2ccccc32)cc1 (centres unmarked) [Compound 5i] has a reported IC50 of 27

The molecule listed as COc1ccc(C2C(C#N)=C(N)Oc3c2c(=O)[nH]c2ccc(OC)cc32)cc1 (centres unmarked) [Compound 5h] has a reported IC50 of 26

The molecule listed as COc1ccc(C2C(C#N)=C(N)Oc3c2c(=O)[nH]c2ccccc32)cc1 (centres unmarked) [Compound 5f] has a reported IC50 of 50
